Where do the numbers come from? From paper PMC12019227.

- Assay target: UP1 R82A/K113A (human, UniProt P09651 1-196, R82A;K113A)
- Sequence (P09651 1-196 R82A/K113A): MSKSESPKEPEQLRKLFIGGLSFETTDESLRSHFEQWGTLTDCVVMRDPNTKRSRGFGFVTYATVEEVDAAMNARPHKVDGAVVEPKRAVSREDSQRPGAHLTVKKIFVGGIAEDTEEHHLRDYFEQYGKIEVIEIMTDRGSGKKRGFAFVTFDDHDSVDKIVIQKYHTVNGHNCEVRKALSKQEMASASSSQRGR
- Method description: ITC; ITC: 20 mM Tris-HCl pH 7.5, 150 mM NaCl, 20 C; protein 160 uM in syringe, RNA 10 uM in cell
- Assay setup: protein: recombinant; tags: C-terminal His6; single strand; crystal has 2 antiparallel strands
Quantity name: Kd (nM)
Numbers only here, please. The scale is nM.

In plain terms, UUAGGGUUAGGG (ssRNA) [TERRA (UUAGGG)2] has a documented Kd of 770
